molecular target: Glucagon-like peptide 2 receptor (Homo sapiens) (UniProt O95838); test: Agonist activity at recombinant human GLP-2R overexpressed in HEK293 cells assessed as cAMP accumulation by HTRF assay relative to control; type: functional, cell-based; details: filed as agonist
Sequence (O95838 whole entry): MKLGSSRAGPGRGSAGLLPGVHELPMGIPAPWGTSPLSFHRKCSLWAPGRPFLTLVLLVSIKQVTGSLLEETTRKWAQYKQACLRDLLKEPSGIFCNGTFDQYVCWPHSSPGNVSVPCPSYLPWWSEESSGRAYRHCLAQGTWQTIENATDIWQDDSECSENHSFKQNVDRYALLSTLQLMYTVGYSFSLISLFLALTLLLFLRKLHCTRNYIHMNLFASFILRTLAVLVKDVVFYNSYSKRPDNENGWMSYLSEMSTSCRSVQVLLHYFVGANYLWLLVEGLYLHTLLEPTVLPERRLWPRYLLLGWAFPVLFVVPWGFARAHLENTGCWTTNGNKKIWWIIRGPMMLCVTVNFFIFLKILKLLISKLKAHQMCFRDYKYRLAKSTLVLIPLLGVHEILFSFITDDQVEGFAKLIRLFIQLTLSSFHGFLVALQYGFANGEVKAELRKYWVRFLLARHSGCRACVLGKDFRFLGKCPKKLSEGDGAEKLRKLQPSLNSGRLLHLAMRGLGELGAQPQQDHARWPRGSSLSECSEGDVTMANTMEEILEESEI

{"substance": "H-HGEGTFSSELATILDALAARDFIAWLIATKITDKKKKKK-NH2", "target-desc": "Glucagon-like peptide 2 receptor (Homo sapiens) (UniProt O95838)", "Efficacy (%)": 102}
{"substance": "H-HGEGSFSSELSTILDALAARDFIAWLIATKITD-NH2", "target-desc": "Glucagon-like peptide 2 receptor (Homo sapiens) (UniProt O95838)", "Efficacy (%)": 102}
{"substance": "H-HGEGSFSSELSTILDALAARDFIAWLIATKITDKKKKKK-NH2", "target-desc": "Glucagon-like peptide 2 receptor (Homo sapiens) (UniProt O95838)", "Efficacy (%)": 100}
{"substance": "H-HGEGTFSDELSTILDALAARDFIAWLIATKITDKKKKKK-NH2", "target-desc": "Glucagon-like peptide 2 receptor (Homo sapiens) (UniProt O95838)", "Efficacy (%)": 102}
{"substance": "H-HGEGTFSSELSTILDALAARDFIAWLIATKITD-NH2", "target-desc": "Glucagon-like peptide 2 receptor (Homo sapiens) (UniProt O95838)", "Efficacy (%)": 101}
{"substance": "H-HGEGTFSSELSTILDALAARDFIAWLIATKITDKKKKKK-NH2", "target-desc": "Glucagon-like peptide 2 receptor (Homo sapiens) (UniProt O95838)", "Efficacy (%)": 102}
{"substance": "H-HGEGTFSSELATILDALAARDFIAWLIATKITD-NH2", "target-desc": "Glucagon-like peptide 2 receptor (Homo sapiens) (UniProt O95838)", "Efficacy (%)": 100}
{"substance": "H-HGEGTFSDELSTILDALAARDFIAWLIATKITD-NH2", "target-desc": "Glucagon-like peptide 2 receptor (Homo sapiens) (UniProt O95838)", "Efficacy (%)": 104}

* * *

assay: Stability of compound assessed as change in fluorescence intensity measured after 96 hrs by ThT fibrillation assay; assay type: physicochemical

{"substance": "H-HGEGSFSSELSTILDALAARDFIAWLIATKITD-NH2", "Flu intensity": "500 RFU"}
{"substance": "H-HGEGTFSDELSTILDALAARDFIAWLIATKITD-NH2", "Flu intensity": "500 RFU"}
{"substance": "H-HGEGTFSSELSTILDALAARDFIAWLIATKITD-NH2", "Flu intensity": "500 RFU"}
{"substance": "H-HGEGSFSDELSTILDALAARDFIAWLIATKITD-NH2", "Flu intensity": "500 RFU"}

* * *

target: Glucagon-like peptide 2 receptor (Homo sapiens, UniProt O95838); assay: Agonist activity at recombinant human GLP-2R overexpressed in HEK293 cells assessed as cAMP accumulation by HTRF assay; assay type: functional, cell-based
Measured EC50, listed per entry.
measurement-name: EC50 (nM)

{"substance": "H-HGEGTFSSELSTILDALAARDFIAWLIATKITDKKKKKK-NH2", "target-desc": "Glucagon-like peptide 2 receptor (Homo sapiens, UniProt O95838)", "measurement-name": "EC50", "data-value": 0.37}
{"substance": "H-HGEGTFSDELSTILDALAARDFIAWLIATKITDKKKKKK-NH2", "target-desc": "Glucagon-like peptide 2 receptor (Homo sapiens, UniProt O95838)", "measurement-name": "EC50", "data-value": 0.34}
{"substance": "H-HGEGTFSSELSTILDALAARDFIAWLIATKITD-NH2", "target-desc": "Glucagon-like peptide 2 receptor (Homo sapiens, UniProt O95838)", "measurement-name": "EC50", "data-value": 0.18}
{"substance": "H-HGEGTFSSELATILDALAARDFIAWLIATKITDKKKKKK-NH2", "target-desc": "Glucagon-like peptide 2 receptor (Homo sapiens, UniProt O95838)", "measurement-name": "EC50", "data-value": 0.18}
{"substance": "H-HGEGTFSDELSTILDALAARDFIAWLIATKITD-NH2", "target-desc": "Glucagon-like peptide 2 receptor (Homo sapiens, UniProt O95838)", "measurement-name": "EC50", "data-value": 0.09}
{"substance": "H-HGEGSFSSELSTILDALAARDFIAWLIATKITDKKKKKK-NH2", "target-desc": "Glucagon-like peptide 2 receptor (Homo sapiens, UniProt O95838)", "measurement-name": "EC50", "data-value": 0.18}
{"substance": "H-HGEGSFSSELSTILDALAARDFIAWLIATKITD-NH2", "target-desc": "Glucagon-like peptide 2 receptor (Homo sapiens, UniProt O95838)", "measurement-name": "EC50", "data-value": 0.11}
{"substance": "H-HGEGTFSSELATILDALAARDFIAWLIATKITD-NH2", "target-desc": "Glucagon-like peptide 2 receptor (Homo sapiens, UniProt O95838)", "measurement-name": "EC50", "data-value": 0.1}
